These entries and their values trace back to patent US12594267B2.

Assay: Plasma PK after single oral administration in solution, rat
Assay type: in vivo, Sprague-Dawley Rat
Conditions: male, Sprague-Dawley, plasma; rat; single oral 5.0 mg/kg; solution in 5% ethanol/20% propylene glycol/45% PEG 300/30% 0.01 N HCl; mean ± SD, n=3
measurement.name: AUC(0-inf) (µM·h)
Record the value in µM·h, omitting the unit from your answer.

// query So what's the measured AUC(0-inf) for this one? CC(C)(C#Cc1ccc(-c2ccc(Cl)c3c(NS(C)(=O)=O)nn(CC(F)(F)F)c23)c([C@H](Cc2cc(F)cc(F)c2)NC(=O)Cn2nc(C(F)(F)F)c3c2C(F)(F)[C@@H]2C[C@H]32)n1)S(C)(=O)=O [Formula (Ia)]
// result 25200
